- Tested on: Wild type
- testDescription: S. aureus survival, RN4220 and DeltatarO strains – OD600, teichoic acid synthesis inhibitors, primary screen (AID 463173)
- recordedConditions: S. aureus RN4220 wild type/DeltatarO growth, OD600, 18 h, screened at 18.75 µg/mL (by protocol)
The campaign covered roughly 52,000 compounds. About 1,700 (3.3%) were called active. Cut-off read from the data, not from the text of the source: active = survival mostly below about 52% (no sharp cut-off); inactive = mostly above about 56%. The full list was thinned out, with actives kept by preference.
Result category, one only: YES for active, NO for inactive

Outcome? CCC(C)NC(=O)CSc1nc2ccc(C(C)C)cc2cc1C#N (stereo not drawn)
NO

Fill in: this test's call for `O=C(NCCCN1CCN(c2ccc(F)cc2)CC1)c1cc2c(s1)-c1ccccc1OC2` is ___
NO

Hi, do you know how `COc1ccc(OC)c(-c2cc(C(=O)Nc3cccc(Cl)c3C)no2)c1` came out in this test?
NO

Short answer needed: outcome of this test for `Nc1ccc(-c2nc3c(Cl)cccc3[nH]2)cc1` ?
NO

What is the recorded call for this molecule in the test? `O=C(NCc1ccc(Cl)cc1)c1cc2c(s1)-c1ccccc1SC2`
NO
